- Tgt: NHE3 (Homo sapiens)
- Sequence (P48764 26-834, species assumed): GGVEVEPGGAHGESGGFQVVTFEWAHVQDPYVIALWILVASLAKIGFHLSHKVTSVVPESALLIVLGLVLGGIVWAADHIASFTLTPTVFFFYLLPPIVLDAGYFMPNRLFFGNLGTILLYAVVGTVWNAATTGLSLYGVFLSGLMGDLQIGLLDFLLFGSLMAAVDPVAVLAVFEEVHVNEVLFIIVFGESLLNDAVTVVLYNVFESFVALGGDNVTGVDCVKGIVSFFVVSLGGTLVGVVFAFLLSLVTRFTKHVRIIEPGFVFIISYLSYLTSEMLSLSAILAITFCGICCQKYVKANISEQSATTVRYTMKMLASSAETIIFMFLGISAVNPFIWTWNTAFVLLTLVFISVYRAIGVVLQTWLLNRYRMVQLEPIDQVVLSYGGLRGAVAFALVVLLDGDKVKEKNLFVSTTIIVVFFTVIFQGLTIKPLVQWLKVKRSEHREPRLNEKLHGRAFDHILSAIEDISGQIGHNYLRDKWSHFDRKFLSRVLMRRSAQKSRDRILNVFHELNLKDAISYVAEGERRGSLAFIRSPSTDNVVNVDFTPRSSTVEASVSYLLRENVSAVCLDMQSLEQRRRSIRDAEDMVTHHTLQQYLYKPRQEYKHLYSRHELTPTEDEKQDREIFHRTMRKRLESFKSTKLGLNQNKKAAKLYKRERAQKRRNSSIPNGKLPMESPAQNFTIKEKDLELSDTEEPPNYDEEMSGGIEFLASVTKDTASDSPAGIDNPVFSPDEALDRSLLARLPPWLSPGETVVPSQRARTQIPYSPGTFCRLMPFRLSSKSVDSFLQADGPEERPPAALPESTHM
- Assay Remarks: Determination of the NHE-inhibitory effect (recovery of intracellular pH after acidification, BCECF)
- Measurement Parameters: BCECF fluorescence, NHE subtype not given
Exam item: assign MET to entries whose IC50 is below 200 nM and NOT MET to entries at or above 200 nM. Note that a value of exactly 200 nM receives NOT MET.

Example cases with answers are listed next.
Compound	Assigned Class
CCCN(C)c1c(Nc2cccc([C@@H]3CN(C)Cc4c(Cl)cc(Cl)cc43)c2)c(=O)c1=O [Example 33]	MET
CCN(CC)c1c(Nc2ccc(C3CN(C)Cc4c(Cl)cc(Cl)cc43)cc2)c(=O)c1=O (centres unmarked) [Example 19]	NOT MET
CC(C)CN(C)c1c(Nc2ccc(C3CN(C)Cc4c(Cl)cc(Cl)cc43)cc2)c(=O)c1=O (centres unmarked) [Example 25]	NOT MET
CCCN(CCC)c1c(Nc2ccccc2[C@@H]2CN(C)Cc3c(Cl)cc(Cl)cc32)c(=O)c1=O [Example 40]	NOT MET
CC(C)N(C)c1c(Nc2ccccc2[C@@H]2CN(C)Cc3c(Cl)cc(Cl)cc32)c(=O)c1=O [Example 42]	MET
CCN(CC)c1c(Nc2cccc([C@@H]3CN(C)Cc4c(Cl)cc(Cl)cc43)c2)c(=O)c1=O [Example 30]	MET
CCCN(CC1CC1)c1c(Nc2ccc(C3CN(C)Cc4c(Cl)cc(Cl)cc43)cc2)c(=O)c1=O (centres unmarked) [Example 29]	NOT MET

Data request: Is IC50 of CN1Cc2c(Cl)cc(Cl)cc2C(c2ccc(Nc3c(N(C)C)c(=O)c3=O)cc2)C1 (centres unmarked) [Example 18] strictly below 200 nM?
Data returned: NOT MET
